Data credit: ChEMBL document CHEMBL2086393

# Tested on: PC-3
# PROCEDURE TEXT: Antineoplastic activity against human PC3 cells after 72 hrs by MTT assay
# Format: functional, cell-based
# TEST SETTINGS: PC-3, 72 h
Exercise: for every item that follows, state its recorded pIC50.
Give bare numbers, as −log10 of the molar value.

Examples with their reported pIC50 follow.
COMPOUND: O=C1O/C(=C/Br)CCC1c1ccccc1 (racemic)
pIC50: 5.22
--
COMPOUND: O=C1O/C(=C/Br)CCC1c1cccc2ccccc12 (racemic)
pIC50: 4.85

Briefly, pIC50 measured for `O=C1O/C(=C/Br)CN(Cc2ccccc2)[C@H]1c1ccccc1` : 5.40

----------
Would you mind telling me the reported IC50 of each entry?
# Test system: PC-3
# PROCEDURE TEXT: Antineoplastic activity against human PC3 cells after 24 hrs by MTT assay
# Format: functional, cell-based
# TEST SETTINGS: PC-3, 24 h
Answers are plain numbers, in µM.

MOLECULE: O=C1O/C(=C/Br)CN(Cc2ccccc2)[C@H]1c1ccccc1
IC50, µM: 4
--
MOLECULE: C#CCN1CC(=O)O/C(=C/Br)C1
IC50, µM: 13

Would you mind listing IC50 for each of the following molecules?
1. C#CCN1C/C(=C\Br)OC(=O)[C@@H]1c1ccccc1
2. O=C1O/C(=C/Br)CCC1c1cccc2ccccc12 (racemic)
3. O=C1CCC/C(=C\Br)O1
4. O=C1O/C(=C/Br)CCC1c1ccccc1 (racemic)
5. C#CCN1C/C(=C\Br)OC(=O)[C@H]1c1ccccc1
6. O=C1CCC/C(=C\I)O1
7. C#CCN1C/C(=C\I)OC(=O)[C@@H]1c1ccccc1

Output line:
1: 15; 2: 34; 3: 19; 4: 27; 5: 8; 6: 32; 7: 21

Result for `C#CCN1C/C(=C\Br)OC(=O)[C@@H]1Cc1ccccc1` , tested on PC-3, IC50: 33

----------
# Tested on: PC-3
# PROCEDURE TEXT: Antineoplastic activity against human PC3 cells after 48 hrs by MTT assay
# Assay type: functional, cell-based
# TEST SETTINGS: PC-3, 48 h
MEASUREMENT NAME: IC50

MOL SMILES: C#CCN1C/C(=C\I)OC(=O)[C@@H]1c1ccccc1
IC50: 21 µM
--
MOL SMILES: O=C1O/C(=C/Br)CN(Cc2ccccc2)[C@H]1c1ccccc1
IC50: 1 µM
--
MOL SMILES: C#CCN1C/C(=C\Br)OC(=O)[C@@H]1c1ccccc1
IC50: 13 µM

Now consider the entry below.
Reported IC50 ( `C#CCN1CC(=O)O/C(=C/Br)C1` ) = 10 µM

----------
# System: LNCaP
# PROCEDURE TEXT: Antineoplastic activity against human LNCAP cells after 72 hrs by MTT assay
# Type: functional, cell-based
MEASUREMENT NAME: pIC50
One number for each entry, as −log10 of the molar value.

Worked cases, answers included:
MOLECULE: O=C1CCC/C(=C\Br)O1
pIC50: 5.30

MOLECULE: C#CCN1CC(=O)O/C(=C/Br)C1
pIC50: 4.55

MOLECULE: O=C1O/C(=C/Br)CCC1c1ccccc1 (racemic)
pIC50: 5.40

MOLECULE: C#CCN1C/C(=C\Br)OC(=O)[C@@H]1Cc1ccccc1
pIC50: 4.49

MOLECULE: O=C1CCC/C(=C\I)O1
pIC50: 5.15

Hi team, please reply with pIC50 for each item in this list.
1. C#CCN1C/C(=C\Br)OC(=O)[C@H]1c1ccccc1
2. O=C1O/C(=C/Br)CN(Cc2ccccc2)[C@H]1c1ccccc1
3. C#CCN1C/C(=C\Br)OC(=O)[C@@H]1c1ccccc1
4. O=C1O/C(=C/Br)CCC1c1cccc2ccccc12 (racemic) [BROMOENOL LACTONE]
5. C#CCN1C/C(=C\I)OC(=O)[C@@H]1c1ccccc1

Output line:
[5.52, 5.52, 5.52, 5.05, 4.70]
